# System: KM12 colon
# PROTOCOL DETAILS: NCI tumour cell line growth inhibition, 48 h
ATTRIBUTE MEASURED: TGI

Reference set (4 entries):
MOLECULE	TESTED TARGET	TGI
COc1ccc(-c2c(N)n(-c3cc(OC)cc(OC)c3)c(=O)c3cc([N+](=O)[O-])ccc23)cc1	KM12 colon	> 100 µM
CC1=C(CC/C(C)=C/CCC2(C)CCC([C@H](C)C(=O)O)OO2)C(C)(C)CCC1 (stereo partly drawn) (tested in a mixture with another compound)	KM12 colon	> 100 µM
CC(C)c1cccc2sc(NC(=O)C(=O)CC(=O)c3ccc(F)cc3)nc12	KM12 colon	> 100 µM
C/C(CC(=O)Nc1ccc(C)cc1)=N\NC(N)=S	KM12 colon	> 100 µM

For each of the items listed, what is its TGI?
1. CC(=O)[CH-]C(=O)c1ccccc1.CC(=O)[CH-]C(=O)c1ccccc1.CC(C)CCCC(C)[C@H]1CCC2[C@@H]3CCC4C[C@@H]([O-])CC[C@]4(C)C3CC[C@@]21C.CC(C)CCCC(C)[C@H]1CCC2[C@@H]3CCC4C[C@@H]([O-])CC[C@]4(C)C3CC[C@@]21C.Cl.[Ti+4] (stereo partly drawn)
2. O=C1C=CC(=O)c2c(O)c(Nc3ccc(OC(F)(F)F)cc3)c(Cl)c(O)c21
3. Cc1c2ccccc2nc2[nH]c3ccncc3c12

RESULT:
1. > 25 µM
2. 2.95 µM
3. > 100 µM

QUERY: Which TGI reading was recorded for the molecule `CC(=O)N1C(=O)C(=O)c2cc(Cl)ccc21` ?
RESULT: > 100 µM

----------
# Test system: UACC-257 melanoma
# PROTOCOL DETAILS: NCI tumour cell line growth inhibition, 48 h
ATTRIBUTE MEASURED: TGI

Reference set (5 entries):
>>> df
                                   compound  attribute_measured  meas_value
0  O=c1oc2ccccc2c(O)c1C(c1ccc([N+](=O)[O-])cc1)c1c(O)c2ccccc2oc1=O                 TGI    > 100 µM
1  O=C(Nc1ccccc1)N1CC(CN2CCN(c3ccccc3)CC2)OC1=O (stereo unspecified)                 TGI    > 100 µM
2  C=CCCC12CCCC(=O)C1Sc1ccc3ccccc3c12 (stereo unspecified)                 TGI     55.7 µM
3  CN[C@@H]1[C@H](O)[C@H](NC)[C@H]2O[C@@]3(O)C(=O)C[C@@H](C)O[C@H]3O[C@@H]2[C@H]1O                 TGI    > 100 µM
4  COc1ccc2c3c([nH]c2c1[N+](=O)[O-])C(C)N(C(=O)/C=C/c1ccccc1)CC3 (stereo unspecified)                 TGI    > 100 µM

For each of the items listed, what is its TGI?
1. C[C@]1(O)CC(=O)[C@]2(O)C3=C(C=C[C@]2(O)C1)C(=O)c1c(O)cccc1C3=O
2. OC(CCN1CCN(CCOC(c2ccc(F)cc2)c2ccc(F)cc2)CC1)c1ccccc1 (stereo unspecified)
3. COc1cc(CSc2ccc(O)cc2)cc(O)c1O
4. COc1ccc(/C=C2/CCOC2=O)cc1
5. CCCCNC(=O)C1=C(C)NC(C)=C(C(=O)NCCCC)C1

RESULT:
1: 3.21 µM; 2: 42.5 µM; 3: > 100 µM; 4: > 100 µM; 5: > 100 µM

Data credit: PubChem BioAssay (NCI)
